measurement-label: IC50 (nM)
Numbers only; they are read as nM.

The observed IC50 for O=C(Nc1cc(C(F)(F)F)ccc1N1CCCCC1)c1ccncc1 when tested with SRSF protein kinase 1 (Homo sapiens, UniProt Q96SB4) stands at 890

====

measurement-label: pIC50
On this scale, pIC50 is minus log10 of a concentration expressed in M (mol/L).

Tested system Cyclin-dependent kinase 5 (Homo sapiens, UniProt Q00535); pIC50 recorded for C.O=c1oc2cc(O)ccc2c2c1[nH]c1ccccc12 was 5.57
